Values compiled from patent US20150037348A1.

Attribute: log10(koff)
Assayed system: T1, human IL-12 (human, UniProt P29459 23-219; P29460 23-328)
T1 construct: recombinant human IL-12 heterodimer (p35/p40, disulfide-linked); also called hIL-12; rhIL-12
T1 sequence (looked up) 1: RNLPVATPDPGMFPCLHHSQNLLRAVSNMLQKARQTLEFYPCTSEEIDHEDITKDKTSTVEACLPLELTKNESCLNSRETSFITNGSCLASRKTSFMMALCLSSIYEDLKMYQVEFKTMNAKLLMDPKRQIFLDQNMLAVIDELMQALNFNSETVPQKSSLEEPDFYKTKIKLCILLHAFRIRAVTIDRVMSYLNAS
T1 sequence (looked up) 2: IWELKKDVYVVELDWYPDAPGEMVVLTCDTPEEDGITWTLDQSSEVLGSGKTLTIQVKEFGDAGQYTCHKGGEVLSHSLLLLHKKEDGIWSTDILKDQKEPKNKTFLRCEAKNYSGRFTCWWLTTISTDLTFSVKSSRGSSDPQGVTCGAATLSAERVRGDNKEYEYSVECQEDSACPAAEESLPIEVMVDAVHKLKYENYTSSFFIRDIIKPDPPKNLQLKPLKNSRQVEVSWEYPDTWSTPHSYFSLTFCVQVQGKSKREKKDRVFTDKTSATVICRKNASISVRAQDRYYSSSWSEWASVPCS
Assay overview: SPR (BIAcore), IL-12 chip
log10 koff, s⁻¹

For orientation, consider the following solved cases.
Binder: B3 (scFv, V domains shown, scFv) VH: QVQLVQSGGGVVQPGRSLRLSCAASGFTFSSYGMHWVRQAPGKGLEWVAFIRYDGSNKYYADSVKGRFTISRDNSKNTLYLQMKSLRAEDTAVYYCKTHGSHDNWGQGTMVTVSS VL: SYVLTQPPSVSGTPGQRVTISCSGGRSNIGSNTVKWYQQLPGTAPKLLIYGNDQRPSGVPDRFSGSKSGTSASLAITGVQAEDEADYYCQSYDRGTPSYPTFGTGTKVTVL
log10(koff): -2.39
--
Binder: 170-25 (scFv, V domains shown, scFv) VH: QVQLVQSGGGVVQPGRSLRLSCAASGFTFSSYGMHWVRQAPGKGLEWVAFIRYDGSNKYYADSVKGRFTISRDNSKNTLYLQMKSLRAEDTAVYYCTTHGSQDTWGQGTMVTVSS VL: SYVLTQPPSVSGTPGQRVTISCSGGRSNIGSNTVKWYQQLPGTAPKLLIYGNDQRPSGVPDRFSGSKSGTSASLAITGVQAEDEADYYCQSYDSSLRGSRVFGTGTKVTVL
log10(koff): -3.30
--
Binder: B10 (scFv, V domains shown, scFv) VH: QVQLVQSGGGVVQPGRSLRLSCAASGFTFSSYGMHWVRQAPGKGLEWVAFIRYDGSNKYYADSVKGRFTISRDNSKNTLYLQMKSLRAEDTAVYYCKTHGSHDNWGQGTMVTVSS VL: SYVLTQPPSVSGTPGQRVTISCSGGRSNIGSNTVKWYQQLPGTAPKLLIYGNDQRPSGVPDRFSGSKSGTSASLAITGVQAEDEADYYCQSYDRGLSDSPLFGTGTKVTVL
log10(koff): -2.22
--
Binder: C7 (scFv, V domains shown, scFv) VH: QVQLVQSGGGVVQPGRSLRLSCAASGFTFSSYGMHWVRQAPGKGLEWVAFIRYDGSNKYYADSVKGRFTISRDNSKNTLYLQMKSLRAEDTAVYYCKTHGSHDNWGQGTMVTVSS VL: SYVLTQPPSVSGTPGQRVTISCSGGRSNIGSNTVKWYQQLPGTAPKLLIYGNDQRPSGVPDRFSGSKSGTSASLAITGVQAEDEADYYCQSYDRGIPTSYLFGTGTKVTVL
log10(koff): -2.23
--
Binder: 149-9 (scFv, V domains shown, scFv) VH: QVQLVQSGGGVVQPGRSLRLSCAASGFTFSSYGMHWVRQAPGKGLEWVAFIRYDGSNKYYADSVKGRFTISRDNSKNTLYLQMKSLRAEDTAVYYCKTHGSHDNWGHGTMVTVSS VL: SYVLTQPPSVSGTPGQRVTISCSGGRSNIGSNTVKWYQQLPGTAPKLLIYGNDQRPSGVPDRFSGSKSGTSASLAITGVQAEDEADYYCQSYERGFTGSMVFGTGTKVTVL
log10(koff): -2.45
--
Binder: 149-11 (scFv, V domains shown, scFv) VH: QVQLVQSGGGVVQPGRSLRLSCAASGFTFSSYGMHWVRQAPGKGLEWVAFIRYDGSNKYYADSVKGRFTISRDNSKNTLYLQMKSLRAEDTAVYYCTTHGSHDNWSQGTMVTVSS VL: SYVLTQPPSVSGTPGQRVTISCSGGRSNIGSNTVKWYQQLPGTAPKLLIYGNDQRPSGVPDRFSGSKSGTSASLAITGVQAEDEADYYCQSYDNGFTGARVFGTGTKVTVL
log10(koff): -1.84
--
Binder: 70-1 (scFv, V domains shown, scFv) VH: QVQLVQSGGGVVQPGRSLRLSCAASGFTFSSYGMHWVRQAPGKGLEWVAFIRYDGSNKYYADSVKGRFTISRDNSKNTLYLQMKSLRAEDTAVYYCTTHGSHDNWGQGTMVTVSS VL: SYVLTQPPSVSGTPGQRVTISCSGGRSNIGSNTVKWYQQLPGTAPKLLIYGNDQRPSGVPDRFSGSKSGTSASLAITGVQAEDEADYYCQSYDSSLRGSRVFGTGTKVTVL
log10(koff): -1.87
--
Binder: 103-1 (scFv, V domains shown, scFv) VH: QVQLVQSGGGVVQPGRSLRLSCAASGFTFSSYGMHWVRQAPGKGLEWVAFIRYDGSNKYYADSVKGRFTISRDNSKNTLYLQMKSLRAEDTAVYYCTTQGRHDNWGQGTMVTVSS VL: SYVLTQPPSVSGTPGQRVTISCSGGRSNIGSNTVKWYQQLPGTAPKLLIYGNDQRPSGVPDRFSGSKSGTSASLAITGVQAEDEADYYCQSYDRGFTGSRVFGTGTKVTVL
log10(koff): -2.54

*Q* Name the recorded log10(koff) for 103-7 (scFv, V domains shown, scFv) VH: QVQLVQSGGGVVQPGRSLRLSCAASGFTFSSYGMHWVRQAPGKGLEWVAFIRYDGSNKYYADSVKGRFTISRDNSKNTLYLQMKSLRAEDTAVYYCTTHGSHDDWGQGTMVTVSS VL: SYVLTQPPSVSGTPGQRVTISCSGGRSNIGSNTVKWYQQLPGTAPKLLIYGNDQRPSGVPDRFSGSKSGTSASLAITGVQAEDEADYYCQSYDRDFTGTRVFGTGTKVTVL .
*A* -3.43

*Q* Name the recorded log10(koff) for 43-G2 (scFv, V domains shown, scFv) VH: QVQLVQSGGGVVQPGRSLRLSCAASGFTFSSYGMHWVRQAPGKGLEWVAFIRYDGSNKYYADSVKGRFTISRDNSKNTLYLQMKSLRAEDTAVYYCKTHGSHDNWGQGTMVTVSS VL: SYVLTQPPSVSGTPGQRVTISCSGGRSNIGSNTVKWYQQLPGTAPKLLIYGNDQRPSGVPDRFSGSKSGTSASLAITGVQAEDEADYYCQSYDRGSSPAIMFGTGTKVTVL .
*A* -3.15
